src = patent US10947234B2

Molecular target: Full-length (FL)-PRMT5-MEP50 enzyme complex (Homo sapiens (Human))
Sequence (O14744 whole entry): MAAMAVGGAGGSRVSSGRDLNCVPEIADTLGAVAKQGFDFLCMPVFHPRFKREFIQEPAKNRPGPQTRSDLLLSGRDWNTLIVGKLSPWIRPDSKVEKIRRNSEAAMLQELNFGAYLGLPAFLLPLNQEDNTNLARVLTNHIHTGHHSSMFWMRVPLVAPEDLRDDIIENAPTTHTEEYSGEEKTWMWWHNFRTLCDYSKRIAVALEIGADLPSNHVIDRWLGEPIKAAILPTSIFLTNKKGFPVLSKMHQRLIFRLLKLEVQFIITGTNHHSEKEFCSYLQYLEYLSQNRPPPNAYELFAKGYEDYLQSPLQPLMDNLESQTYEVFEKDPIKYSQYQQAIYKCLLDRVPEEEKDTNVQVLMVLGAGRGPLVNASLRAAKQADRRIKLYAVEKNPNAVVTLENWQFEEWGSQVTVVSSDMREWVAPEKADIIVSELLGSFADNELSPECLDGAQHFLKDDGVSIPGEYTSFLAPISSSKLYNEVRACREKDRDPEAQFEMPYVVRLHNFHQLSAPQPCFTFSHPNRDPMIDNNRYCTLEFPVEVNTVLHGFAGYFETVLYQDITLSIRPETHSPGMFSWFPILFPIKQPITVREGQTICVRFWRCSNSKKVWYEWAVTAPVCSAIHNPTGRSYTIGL
Sequence (Q9BQA1 whole entry partner): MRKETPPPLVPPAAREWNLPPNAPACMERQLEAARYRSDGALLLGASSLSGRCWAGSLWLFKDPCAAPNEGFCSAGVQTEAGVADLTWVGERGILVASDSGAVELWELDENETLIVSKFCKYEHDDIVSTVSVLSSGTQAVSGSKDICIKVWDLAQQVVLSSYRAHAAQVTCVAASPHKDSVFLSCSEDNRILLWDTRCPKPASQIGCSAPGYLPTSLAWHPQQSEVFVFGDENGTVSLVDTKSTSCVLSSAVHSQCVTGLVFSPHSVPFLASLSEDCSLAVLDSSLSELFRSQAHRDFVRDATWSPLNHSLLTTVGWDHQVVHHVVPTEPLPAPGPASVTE
Assay: PRMT5-MEP50 Enzyme Methylation Assay
Format: biochemical
Conditions: first IC50 of 7 parameters biphasic fit; biotinylated H4R3(Me1) peptide, 15 μM SAM; top compound concentration 100000 nM; read-out: Enzyme Methylation Assay IC50_1
Class definitions on IC50: b0 = under 60 nM, b1 = from 60 nM up to 4000 nM, b2 = 4000 nM and over

CC[C@H]1CN(C[C@@H](O)[C@@H]2Cc3ccccc3CN2)C(=O)c2cc(Cl)ncc21 (single isomer, unassigned) [Example 3] | b2
CC[C@H]1CN(C[C@@H](O)[C@@H]2Cc3ccccc3CN2)C(=O)c2cc(NC3CCN(C(C)=O)CC3)ncc21 (single isomer, unassigned) [Example 7] | b0
CC[C@H]1CN(C[C@@H](O)[C@@H]2Cc3ccccc3CN2)C(=O)c2cc(NC3CCN(C(C)=O)CC3)ncc21 (single isomer, unassigned) [Example 10] | b1
CC[C@H]1CN(C[C@@H](O)[C@@H]2Cc3ccccc3CN2)C(=O)c2cc(NC3CCN(C(C)=O)CC3)ncc21 (single isomer, unassigned) [Example 9] | b0
CC[C@H]1CN(C[C@@H](O)[C@@H]2Cc3ccccc3CN2)C(=O)c2cc(Cl)ncc21 (single isomer, unassigned) [Example 2] | b1

Lab note: next compound to report on.
Query :: Given CC[C@H]1CN(C[C@@H](O)[C@@H]2Cc3ccccc3CN2)C(=O)c2cc(Cl)ncc21 (single isomer, unassigned) [Example 1] , name the class its IC50 places it in.
Result :: b2
